Recorded measurements of EC50, one per entry
tested on: SARS-CoV-2 B.1.1.7 lineage; assay: microbe, parasite or virus in culture; format: cell-based; conditions: Severe acute respiratory syndrome coronavirus 2, 96 h; read-out: A549-dual_ACE2_TMPRSS2 (EC50)

The cases that follow already have their EC50 on record.
CC(C)(C)[C@H](NC(=O)C(F)(F)F)C(=O)N1C[C@H]2[C@@H]([C@H]1C(=O)NC(C#N)c1cncc3ccccc13)[C@H]1C=C[C@@H]2C1 (stereo partly drawn) ... < 100 nM
CC(C)(C)[C@H](NC(=O)C(F)(F)F)C(=O)N1CC2(CC2)C[C@H]1C(=O)NC(C#N)c1cnn2ccccc12 (stereo partly drawn) ... 100 to 1000 nM

Okay, now this compound:
Can you look up the measured EC50 of CC(C)(C)[C@H](NC(=O)C(F)(F)F)C(=O)N1C[C@@H]2[C@H]3C[C@@H]([C@@H]2[C@H]1C(=O)NC(C#N)c1cncc2cccnc12)[C@H](F)C3 (stereo partly drawn) for me?
< 100 nM

###

test: Cytotoxicity in HeLa cells without OC43 virus; format: cell-based; conditions: human, HeLa cells (uninfected), in parallel
Here the recorded CC50 at 6 days is given for each entry.

Consider the worked cases shown below.
CC(C)(C)[C@H](NC(=O)C(F)(F)F)C(=O)N1C[C@@H]2[C@H]3C[C@@H]([C@@H]2[C@H]1C(=O)NC(C#N)c1cncc(Cl)c1Cl)[C@H](F)C3 (stereo partly drawn) ... ≥ 10 µM
COc1cccn2ncc(C(C#N)NC(=O)[C@@H]3[C@@H]4[C@H](CN3C(=O)[C@@H](NC(=O)C(F)(F)F)C(C)(C)C)[C@H]3C[C@@H]4[C@H](F)C3)c12 (stereo partly drawn) ... ≥ 10 µM

Which CC50 at 6 days value is on record for CC(C)(C)[C@H](NC(=O)C(F)(F)F)C(=O)N1CC2(CC2)C[C@H]1C(=O)NC(C#N)c1cnn2ccccc12 (stereo partly drawn) ?
≥ 10 µM

###

system: SARS-CoV-2 B.1.1.7 lineage; assay: microbe, parasite or virus in culture; format: cell-based; details: Severe acute respiratory syndrome coronavirus 2, 96 h; read-out: A549-dual_ACE2_TMPRSS2 (EC50)
observedProperty: EC50

COc1cccc2cncc(C(C#N)NC(=O)[C@@H]3[C@@H](c4ccccc4)CCN3C(=O)[C@@H](NC(=O)C(F)(F)F)C(C)(C)C)c12 (stereo partly drawn) ... ≥ 1000 nM

Entry CC(C)(C)[C@H](NC(=O)C(F)(F)F)C(=O)N1C[C@@H]2[C@@H]3C[C@H]([C@@H]2[C@H]1C(=O)NC(C#N)c1cnn(-c2ccccc2)c1)[C@H](F)C3 (stereo partly drawn) has what EC50?
≥ 1000 nM

What about this molecule? CC(C)(C)[C@H](NC(=O)C(F)(F)F)C(=O)N1C[C@@H]2[C@H]3C[C@@H]([C@@H]2[C@H]1C(=O)NC(C#N)c1cnn2cc(F)ccc12)[C@H](F)C3 (stereo partly drawn)
< 100 nM

Please give the result for CC(C)(C)[C@H](NC(=O)C(F)(F)F)C(=O)N1C[C@@H]2[C@H]3C[C@@H]([C@@H]2[C@H]1C(=O)NC(C#N)c1cncn1-c1ccccc1)[C@H](F)C3 (stereo partly drawn) too.
≥ 1000 nM

Cool, now `COc1cccc2cncc([C@H](C#N)NC(=O)[C@@H]3[C@@H]4[C@H](CN3C(=O)[C@@H](NC(=O)C(F)(F)F)C(C)(C)C)[C@H]3C[C@@H]4[C@H](F)C3)c12`
< 100 nM

Next record, please: COc1cccn2ncc(C(C#N)NC(=O)[C@@H]3[C@@H]4[C@H](CN3C(=O)[C@@H](NC(=O)C(F)(F)F)C(C)(C)C)[C@H]3C[C@@H]4[C@H](F)C3)c12 (stereo partly drawn)
< 100 nM
